Data origin, for the record: ChEMBL document CHEMBL2401643

- system-tested: Microsomal triglyceride transfer protein large subunit (Homo sapiens, UniProt P55157)
- Sequence (P55157 whole entry): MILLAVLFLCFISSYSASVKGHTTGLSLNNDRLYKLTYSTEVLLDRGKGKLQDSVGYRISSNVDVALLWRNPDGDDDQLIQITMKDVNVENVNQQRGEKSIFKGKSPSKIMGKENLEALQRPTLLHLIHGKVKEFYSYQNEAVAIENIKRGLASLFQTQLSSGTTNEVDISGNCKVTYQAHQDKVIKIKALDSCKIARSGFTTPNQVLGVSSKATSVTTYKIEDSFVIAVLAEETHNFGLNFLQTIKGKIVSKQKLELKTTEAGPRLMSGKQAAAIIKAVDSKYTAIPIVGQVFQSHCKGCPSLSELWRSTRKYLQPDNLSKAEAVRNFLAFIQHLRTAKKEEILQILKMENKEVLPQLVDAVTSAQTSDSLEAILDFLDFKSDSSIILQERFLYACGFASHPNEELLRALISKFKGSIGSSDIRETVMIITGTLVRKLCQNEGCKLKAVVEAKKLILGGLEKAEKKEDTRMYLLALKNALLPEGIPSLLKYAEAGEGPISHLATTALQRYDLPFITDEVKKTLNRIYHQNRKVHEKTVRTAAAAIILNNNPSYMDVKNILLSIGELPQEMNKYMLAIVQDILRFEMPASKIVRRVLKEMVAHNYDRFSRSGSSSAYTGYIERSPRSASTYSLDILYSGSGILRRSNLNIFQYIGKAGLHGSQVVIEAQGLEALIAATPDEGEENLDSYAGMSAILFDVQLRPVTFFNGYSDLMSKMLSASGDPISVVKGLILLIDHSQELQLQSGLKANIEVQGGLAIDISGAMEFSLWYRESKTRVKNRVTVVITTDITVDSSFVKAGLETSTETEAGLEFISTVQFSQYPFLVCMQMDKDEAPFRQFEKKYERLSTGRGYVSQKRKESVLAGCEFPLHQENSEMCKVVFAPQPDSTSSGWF
- test: Inhibition of MTP (unknown origin)-mediated triglyceride transfer from donor to acceptor vesicles preincubated for 5 mins followed by enzyme addition by [14C]-counting analysis
pIC50: −log10 of the molar value.
property-measured: pIC50

I'd like to know its pIC50. The compound in question is CCNC(=O)C(c1ccccc1)C1CCN(c2ccc(NC(=O)Nc3c(C)noc3C)cc2F)CC1 (stereo not drawn)
< 5.00

I'd like to know its pIC50. The compound in question is CCN(CC)C(=O)C(c1ccccc1)C1CCN(c2ccc(NC(=O)c3c(C)noc3C)cc2F)CC1 (stereo not drawn)
< 5.00

I'd like to know its pIC50. The compound in question is CCN(CC)C(=O)C(c1ccccc1)C1CCN(c2ccc(NC(=O)Nc3c(C)noc3C)cc2F)CC1 (stereo not drawn)
< 5.00

###

Would you kindly list IC50 for each of these compounds?
- system-tested: Neuropeptide Y receptor type 2 (Homo sapiens)
- Sequence (P49146 whole entry): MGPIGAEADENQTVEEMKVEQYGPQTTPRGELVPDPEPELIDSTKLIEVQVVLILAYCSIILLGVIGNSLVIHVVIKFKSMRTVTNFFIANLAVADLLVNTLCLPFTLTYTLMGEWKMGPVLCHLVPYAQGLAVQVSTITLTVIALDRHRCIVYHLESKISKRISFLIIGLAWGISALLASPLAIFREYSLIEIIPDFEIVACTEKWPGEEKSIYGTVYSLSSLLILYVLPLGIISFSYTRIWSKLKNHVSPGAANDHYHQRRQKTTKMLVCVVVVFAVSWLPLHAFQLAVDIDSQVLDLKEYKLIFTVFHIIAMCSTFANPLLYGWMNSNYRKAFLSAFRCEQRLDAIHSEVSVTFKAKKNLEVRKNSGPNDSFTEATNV
- test: Displacement of [125I]PYY from NPY-Y2 receptor in human KAN-TS cell membranes after 1 hr by scintillation counting analysis
Report the figure in µM without appending any unit label.

Find IC50 (Neuropeptide Y receptor type 2 (Homo sapiens)) for the entry CCNC(=O)C(c1ccccc1)C1CCN(c2ccc(NC(=O)c3ccccc3-c3ccccc3)cc2F)CC1 (stereo not given)
0.012

Find IC50 (Neuropeptide Y receptor type 2 (Homo sapiens)) for the entry CCNC(=O)C(c1ccccc1)C1CCN(c2ccc(NC(=O)c3ccccc3-c3ccsc3)cc2F)CC1 (stereo not given)
0.07

Find IC50 (Neuropeptide Y receptor type 2 (Homo sapiens)) for the entry CCN(CC)C(=O)C(c1ccccc1)C1CCN(c2ccc(NC(=O)c3ccccc3-c3cccnc3)cc2F)CC1 (stereo not given)
0.007

Find IC50 (Neuropeptide Y receptor type 2 (Homo sapiens)) for the entry CCNC(=O)C(c1ccccc1)C1CCN(c2ccc(C(=O)Nc3ccccc3-c3ccccc3)cc2F)CC1 (stereo not given)
0.045

Find IC50 (Neuropeptide Y receptor type 2 (Homo sapiens)) for the entry CCNC(=O)C(c1ccccc1)C1CCN(c2ccc(NC(=O)c3ccccc3-c3cccnc3)cc2F)CC1 (stereo not given)
0.024

###

Would you kindly list remaining at 0.25 h for each of these compounds?
- test: Metabolic stability in rat liver microsomes assessed as compound remaining after 15 mins
- Format: ADME, Microsome
- condition-label: read-out: Stability
Report the figure in % without appending any unit label.

I'd like to know its remaining at 0.25 h. The compound in question is CCN(CC)C(=O)C(c1ccccc1)C1CCN(c2ccc(NC(=O)Nc3c(C)noc3C)cc2F)CC1 (centres undefined)
17

I'd like to know its remaining at 0.25 h. The compound in question is CCN(CC)C(=O)C(c1ccccc1)C1CCN(c2ccc(NC(=O)c3c(C)noc3C)cc2F)CC1 (centres undefined)
3.3

I'd like to know its remaining at 0.25 h. The compound in question is CCN(CC)C(=O)C(c1ccccc1)N1CCN(c2ccc(NC(=O)c3ccccc3-c3cccnc3)cc2F)CC1 (centres undefined)
1.7

I'd like to know its remaining at 0.25 h. The compound in question is CCN(CC)C(=O)C(c1ccccc1)C1CCN(c2ccc(NC(=O)c3ccccc3-c3cccnc3)cc2F)CC1 (centres undefined)
98
